# Tested on: chickweed
# Test: Test D postemergence
# Format: in vivo, Stellaria media
# Study conditions: Postemergence, 125 g ai/ha, scale 0 to 100
# From the text: […]
Overview of recorded Chickweed plant response rating for various molecules

Use these answered entries as a reference point.
CCc1cc(C(=O)NCC(F)(F)F)nn1Cc1ccnc(SC(F)(F)F)c1 [Compound 214] :: 70
Cc1cc(C(=O)NCC(F)(F)F)nn1Cc1ccnc(C(F)(F)F)c1 [Compound 74] :: 65
CCCc1cc(C(=O)NC2CC2)nn1Cc1cc(C(F)(F)F)nn1C [Compound 202] :: 45

Form field: Chickweed plant response rating recorded for O=C(NC1CC1)c1cc(CCF)n(Cc2ccnc(C(F)(F)F)c2)n1 [Compound 176] with chickweed (enter value)
65
